Procedure text: Ex vivo biodistribution in mice bearing LNCaP tumor xenografts
Set-up: species or system mouse (male NOD-scid IL2Rg^null (NSG))
Measurement parameters: mouse, thyroid, iv, 1 h Blocked (co-injection of 2-PMPA, 0.5 mg), mean ± SD; read-out: Thyroid uptake
Property name: tissue uptake at 1 h (%ID/g)

1: O=C(O)CCC[C@H](NC(=O)N[C@@H](CCCCNC(=O)[C@H](Cc1c2ccccc2cc2ccccc12)NC(=O)[C@H]1CC[C@H](CNC(=O)CNC(=O)[C@H](CCCCNC(=O)c2ccc(F)nc2)NC(=O)CN(CC(=O)O)CC(=O)O)CC1)C(=O)O)C(=O)O [^18F-KL01130]
2: O=C(O)CC[C@H](NC(=O)N[C@@H](CCCCNC(=O)[C@H](Cc1c2ccccc2cc2ccccc12)NC(=O)[C@H]1CC[C@H](CNC(=O)[C@H](CCNC(=O)c2ccc(F)nc2)NC(=O)CCC(=O)N(CC(=O)O)CC(=O)O)CC1)C(=O)O)C(=O)O [^18F-KL01120]
Asked: Field: lower recorded tissue uptake at 1 h (choose 1 or 2 ) In your reply, give the label of the chosen option.
Given back: 2
(2: 0.33 %ID/g, 1: 0.48 %ID/g)

Where these numbers come from: patent US20260306680A1
